target: translin (TB-RBP) (Mus musculus, UniProt Q62348 1-228); test: fluorescence polarization
Sequence (Q62348 whole entry): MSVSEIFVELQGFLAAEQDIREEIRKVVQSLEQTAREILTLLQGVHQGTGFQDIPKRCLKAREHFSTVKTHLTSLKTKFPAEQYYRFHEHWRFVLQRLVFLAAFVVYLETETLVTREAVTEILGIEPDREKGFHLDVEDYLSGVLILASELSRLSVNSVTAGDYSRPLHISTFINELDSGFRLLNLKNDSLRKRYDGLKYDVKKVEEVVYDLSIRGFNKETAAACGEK
pKd: −log10 of the molar value.
Attribute: pKd

# binder, pKd
rows = [
    ("UCUGAGCCCUCACCUGCCAAGGAGCCACGAGAUCUGAGU (ssRNA) [PRM-2 Variant 1]", 6.00),
    ("UCUGAGCCCUGAGCUGCCAAGGAGCCACGAGAUCUGAGU (ssRNA) [PRM-2]", 6.70),
    ("UCUGAGCCCUCACCUGCCAAGGAGCCACCACAUCUGAGU (ssRNA) [PRM-2 Variant 3]", 6.52),
    ("AGAGGAGGAGGAGGAGGAGGAGGAG (ssRNA) [rGAG]", 6.30),
    ("UCUGAGCCCUGAGCUGCCAAGGAGCCACGA (ssRNA) [PRM-2(1-30)]", 6.70),
    ("UCUGAGCCCUGAGCUGCCAAGGAGCCACCACAUCUGAGU (ssRNA) [PRM-2 Variant 2]", 6.70),
    ("TCTGAGCCCTGAGCTGCCAAGGAGCCACGAGATCTGAGT (ssDNA) [dPRM-2]", 5.00),
]
